details: 328.15 K; 40000 kPa; Liquid; Vibrating tube method
Recorded mass density, one value per entry.
Report only the number, with the unit kg/m3 understood.

Known results for compounds:
1) CCCCCCO
820.6
2) CCCCCCCO
823.8
3) CCCO
807.2
4) CCCCCCCCCO
828
5) CCCCCCCCCCCO
831.7

Now for another entry.
### Prompt Reported mass density, compound CCCCO : ____
### Response 812.7

====

conditions: 358.15 K; 5000 kPa; Liquid; Vibrating tube method
Recorded mass density, one value per entry.
Report only the number, with the unit kg/m3 understood.

Known results for compounds:
1) CCCO
753.5
2) CCCCCCO
774.2
3) CCCCCCCCCCO
787.6
4) CCCCCCCCO
782.3
5) CCCCO
761.7
6) CCCCCCCCCCCO
790

### Prompt Reported mass density, compound CCCCCCCCCO : ____
### Response 785

### Prompt Reported mass density, compound CCO : ____
### Response 736

### Prompt Reported mass density, compound CCCCCCCO : ____
### Response 778.7

### Prompt Reported mass density, compound CCCCCO : ____
### Response 768.8
